# Test system: PXR homodimer (NR concentration 270 nM)
# Experiment Summary: PBM binding z-score (relative to random genomic background probes); higher = stronger binding; sequences stand for … in GC…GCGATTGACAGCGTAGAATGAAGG
Would you please tag the item Yes when its PBM binding z-score is 0.5 or above, and No when it is below?

INSERT INTO results (monomer_sequence, cat) VALUES
  ('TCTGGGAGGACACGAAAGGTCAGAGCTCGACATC', 'Yes'),
  ('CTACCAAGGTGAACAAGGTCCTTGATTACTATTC', 'No'),
  ('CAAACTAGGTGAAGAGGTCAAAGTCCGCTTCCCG', 'Yes'),
  ('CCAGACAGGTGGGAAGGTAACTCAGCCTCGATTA', 'No'),
  ('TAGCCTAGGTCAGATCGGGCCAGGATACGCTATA', 'No'),
  ('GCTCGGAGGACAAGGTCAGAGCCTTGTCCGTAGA', 'No'),
  ('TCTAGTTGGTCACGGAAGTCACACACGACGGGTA', 'No'),
  ('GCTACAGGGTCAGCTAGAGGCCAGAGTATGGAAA', 'No'),
  ('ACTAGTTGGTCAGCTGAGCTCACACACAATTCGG', 'No'),
  ('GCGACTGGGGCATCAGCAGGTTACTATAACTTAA', 'No'),
  ('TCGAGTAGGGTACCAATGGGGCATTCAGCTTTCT', 'No'),
  ('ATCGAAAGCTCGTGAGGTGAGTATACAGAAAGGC', 'No'),
  ('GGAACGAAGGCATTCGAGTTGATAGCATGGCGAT', 'No'),
  ('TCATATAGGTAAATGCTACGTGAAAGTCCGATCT', 'No'),
  ('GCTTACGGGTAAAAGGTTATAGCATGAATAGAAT', 'Yes'),
  ('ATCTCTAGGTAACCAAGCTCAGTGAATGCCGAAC', 'No'),
  ('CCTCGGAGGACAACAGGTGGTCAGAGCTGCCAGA', 'No'),
  ('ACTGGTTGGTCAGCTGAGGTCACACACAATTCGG', 'Yes'),
  ('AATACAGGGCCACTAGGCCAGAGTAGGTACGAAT', 'No'),
  ('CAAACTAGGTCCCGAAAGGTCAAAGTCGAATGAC', 'Yes'),
  ('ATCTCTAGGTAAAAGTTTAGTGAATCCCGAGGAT', 'No'),
  ('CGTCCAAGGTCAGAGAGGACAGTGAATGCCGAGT', 'Yes'),
  ('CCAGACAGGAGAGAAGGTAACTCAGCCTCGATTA', 'No'),
  ('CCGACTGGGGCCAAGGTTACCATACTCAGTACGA', 'No'),
  ('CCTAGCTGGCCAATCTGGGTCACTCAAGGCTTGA', 'No'),
  ('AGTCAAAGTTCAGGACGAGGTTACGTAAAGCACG', 'Yes'),
  ('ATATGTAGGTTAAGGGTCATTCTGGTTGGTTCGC', 'Yes'),
  ('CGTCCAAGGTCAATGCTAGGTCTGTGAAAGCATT', 'Yes'),
  ('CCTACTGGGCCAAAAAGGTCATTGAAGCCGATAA', 'Yes'),
  ('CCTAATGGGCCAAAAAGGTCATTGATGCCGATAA', 'Yes'),
  ('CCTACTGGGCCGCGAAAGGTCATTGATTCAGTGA', 'Yes'),
  ('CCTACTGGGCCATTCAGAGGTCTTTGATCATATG', 'No'),
  ('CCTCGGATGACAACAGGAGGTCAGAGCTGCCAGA', 'No'),
  ('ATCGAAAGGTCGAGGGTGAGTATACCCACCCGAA', 'No'),
  ('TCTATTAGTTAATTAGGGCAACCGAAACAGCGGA', 'No'),
  ('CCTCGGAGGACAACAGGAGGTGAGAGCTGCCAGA', 'No'),
  ('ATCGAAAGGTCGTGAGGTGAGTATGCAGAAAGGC', 'No'),
  ('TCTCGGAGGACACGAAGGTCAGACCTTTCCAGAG', 'Yes'),
  ('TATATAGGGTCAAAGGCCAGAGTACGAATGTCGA', 'No'),
  ('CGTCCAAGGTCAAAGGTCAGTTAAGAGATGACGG', 'Yes'),
  ('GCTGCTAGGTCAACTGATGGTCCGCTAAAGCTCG', 'No'),
  ('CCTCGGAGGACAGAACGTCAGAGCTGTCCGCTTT', 'No'),
  ('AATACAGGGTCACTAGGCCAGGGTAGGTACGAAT', 'No'),
  ('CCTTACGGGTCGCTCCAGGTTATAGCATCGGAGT', 'No'),
  ('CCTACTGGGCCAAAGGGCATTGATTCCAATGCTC', 'No'),
  ('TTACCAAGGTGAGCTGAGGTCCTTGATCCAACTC', 'No'),
  ('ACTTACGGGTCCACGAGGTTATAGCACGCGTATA', 'Yes'),
  ('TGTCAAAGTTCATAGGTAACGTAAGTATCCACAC', 'Yes'),
  ('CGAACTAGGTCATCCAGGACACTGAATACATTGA', 'Yes'),
  ('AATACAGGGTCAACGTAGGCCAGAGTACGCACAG', 'No');

----------
# System: RARg homodimer (NR concentration 270 nM)
# Experiment Summary: PBM binding z-score (relative to random genomic background probes); higher = stronger binding; sequences stand for … in GC…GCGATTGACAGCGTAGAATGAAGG
Quantity: PBM binding z-score

INSERT INTO results (monomer_sequence, observed_value) VALUES
  ('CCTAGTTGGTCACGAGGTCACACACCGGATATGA', 4.66),
  ('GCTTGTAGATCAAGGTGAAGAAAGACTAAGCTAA', -0.0485),
  ('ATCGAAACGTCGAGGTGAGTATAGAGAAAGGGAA', 0.317),
  ('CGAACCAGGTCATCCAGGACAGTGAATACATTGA', 4.8),
  ('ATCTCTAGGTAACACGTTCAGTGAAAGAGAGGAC', 0.586),
  ('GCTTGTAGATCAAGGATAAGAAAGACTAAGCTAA', -0.0867),
  ('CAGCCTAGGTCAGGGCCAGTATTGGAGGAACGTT', 3.91),
  ('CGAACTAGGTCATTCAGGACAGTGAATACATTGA', 4.69),
  ('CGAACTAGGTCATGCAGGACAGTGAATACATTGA', 4.66),
  ('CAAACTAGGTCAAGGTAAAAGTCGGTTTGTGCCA', 5.09),
  ('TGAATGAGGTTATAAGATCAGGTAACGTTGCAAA', 1.13),
  ('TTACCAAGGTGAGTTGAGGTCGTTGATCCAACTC', 1.18),
  ('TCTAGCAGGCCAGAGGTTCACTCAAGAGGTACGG', 0.306),
  ('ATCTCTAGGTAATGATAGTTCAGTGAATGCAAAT', 0.864),
  ('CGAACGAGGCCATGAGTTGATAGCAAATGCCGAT', 0.821),
  ('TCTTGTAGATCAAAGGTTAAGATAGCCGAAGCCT', 1.11),
  ('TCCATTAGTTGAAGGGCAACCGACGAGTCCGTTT', 0.586),
  ('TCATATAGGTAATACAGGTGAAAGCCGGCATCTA', 0.815),
  ('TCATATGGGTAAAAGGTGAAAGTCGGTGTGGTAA', 0.446),
  ('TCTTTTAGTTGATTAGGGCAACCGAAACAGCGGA', 1.12),
  ('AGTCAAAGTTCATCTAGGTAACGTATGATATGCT', 6),
  ('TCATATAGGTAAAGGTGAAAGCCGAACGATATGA', 1.18),
  ('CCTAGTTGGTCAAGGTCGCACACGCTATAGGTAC', 2.27),
  ('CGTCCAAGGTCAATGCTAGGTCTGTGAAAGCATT', 6.03),
  ('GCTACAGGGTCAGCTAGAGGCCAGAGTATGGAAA', 5.02),
  ('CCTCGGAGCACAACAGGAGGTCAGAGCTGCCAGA', 1.65);

----------
# Tested on: RARb homodimer (NR concentration 270 nM)
# Experiment Summary: PBM binding z-score (relative to random genomic background probes); higher = stronger binding; sequences stand for … in GC…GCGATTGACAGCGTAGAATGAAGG
# PBM binding z-score annotations
Quantity: PBM binding z-score

INSERT INTO measurements (monomer_sequence, quantity, observed_value) VALUES
  ('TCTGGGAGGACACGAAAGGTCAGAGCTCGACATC', 'PBM binding z-score', 4.8),
  ('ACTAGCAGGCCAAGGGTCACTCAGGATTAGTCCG', 'PBM binding z-score', 3.78),
  ('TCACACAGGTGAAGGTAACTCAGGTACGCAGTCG', 'PBM binding z-score', 0.561),
  ('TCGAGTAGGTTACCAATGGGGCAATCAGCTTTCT', 'PBM binding z-score', 0.687),
  ('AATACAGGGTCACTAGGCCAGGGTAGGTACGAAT', 'PBM binding z-score', 3.44),
  ('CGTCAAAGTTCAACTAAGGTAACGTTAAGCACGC', 'PBM binding z-score', 4.42);

These data points were gathered from the supplement of paper PMC6555819.
